I'd appreciate it if you could supply IC50 values for the items below.
TARGET: recombinant human Mcl-1 (residues 171-327) / Bim interaction (Homo sapiens (Human))
Sequence (Q07820 171-327): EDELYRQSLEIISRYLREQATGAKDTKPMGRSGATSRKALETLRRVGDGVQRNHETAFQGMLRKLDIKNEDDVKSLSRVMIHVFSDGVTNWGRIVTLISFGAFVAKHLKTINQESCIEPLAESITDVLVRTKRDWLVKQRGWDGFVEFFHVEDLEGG
TEST SUMMARY: biochemical
Format: binding
TEST CONDITIONS: TR-FRET, Mcl-1(171-327) / biotin-Bim (51-76); read-out: Mcl-1 HTRF IC50
# number only, unit nM dropped from output

Prompt: Item C[C@@H]1[C@@H](C)CCC[C@@](O)(CS(=O)(=O)N2CCN(C)CC2)[C@@H]2CC[C@H]2CN2C[C@@]3(CCCc4cc(Cl)ccc43)COc3ccc(cc32)C(=O)NS1(=O)=O [Example 100139] has what recorded IC50?
Completion: 2.58

Prompt: Request: C[C@@H]1[C@@H](C)C/C=C/[C@@](O)(c2cccnn2)[C@@H]2CC[C@H]2CN2C[C@@]3(CCCc4cc(Cl)ccc43)COc3ccc(cc32)C(=O)NS1(=O)=O (single isomer, unassigned)
Completion: 0.135

Prompt: Now give it for `C#C[C@]1(O)/C=C/C[C@H](C)[C@@H](C)S(=O)(=O)NC(=O)c2ccc3c(c2)N(C[C@@H]2CC[C@H]21)C[C@@]1(CCCc2cc(Cl)ccc21)CO3` too.
Completion: 0.182

Prompt: Would you mind doing C[C@@H]1[C@@H](C)C/C=C/[C@@](O)(c2ccc(F)cn2)[C@@H]2CC[C@H]2CN2C[C@@]3(CCCc4cc(Cl)ccc43)COc3ccc(cc32)C(=O)NS1(=O)=O (single isomer, unassigned) as well?
Completion: 0.098

Prompt: Ok, now `CO[C@]1(CCN2CCCCC2)/C=C/C[C@H](C)[C@@H](C)S(=O)(=O)NC(=O)c2ccc3c(c2)N(C[C@@H]2CC[C@H]21)C[C@@]1(CCCc2cc(Cl)ccc21)CO3`
Completion: 0.071

====

TARGET: recombinant human Mcl-1 (residues 171-327) / Bim interaction (Homo sapiens (Human))
TEST SUMMARY: biochemical
Assay type: binding
TEST CONDITIONS: 0.1 nM Mcl-1(171-327), 0.05 nM biotin-Bim (51-76); read-out: Mcl-1 HTRF IC50
Answer each item with its documented IC50.
Express it in nM; write the number only.

Prompt: Requested field: IC50. Item: `CO[C@]1(CN2C[C@H]3CN(C)C[C@H]3C2)/C=C/C[C@H](C)[C@@H](C)S(=O)(=O)NC(=O)c2ccc3c(c2)N(C[C@@H]2CC[C@H]21)C[C@@]1(CCCc2cc(Cl)ccc21)CO3`
Completion: 0.394

Prompt: Next record, please: `CO[C@@]1(CN2CCC=C(F)C2)/C=C/C[C@H](C)[C@@H](C)S(=O)(=O)NC(=O)c2ccc3c(c2)N(C[C@@H]2CC[C@H]21)C[C@@]1(CCCc2cc(Cl)ccc21)CO3`
Completion: 0.397

Prompt: Record: `COCC(=O)N1CCN(C[C@]2(OC)/C=C/C[C@H](C)[C@@H](C)S(=O)(=O)NC(=O)c3ccc4c(c3)N(C[C@@H]3CC[C@H]32)C[C@@]2(CCCc3cc(Cl)ccc32)CO4)CC1`
Completion: 0.099

Prompt: Follow-up entry: `CO[C@]1(CN2CCN(C3CCC3)CC2)/C=C/C[C@H](C)[C@@H](C)S(=O)(=O)NC(=O)c2ccc3c(c2)N(C[C@@H]2CC[C@H]21)C[C@@]1(CCCc2cc(Cl)ccc21)CO3`
Completion: 0.143

Prompt: Here is the next compound: `CO[C@]1(CN2CCN3CCOC[C@@H]3C2)/C=C/C[C@H](C)[C@@H](CC2CCC2)S(=O)(=O)NC(=O)c2ccc3c(c2)N(C[C@@H]2CC[C@H]21)C[C@@]1(CCCc2cc(Cl)ccc21)CO3`
Completion: 0.342
